- Tested on: S. aureus CF9A-L
- method_summary: MIC, microdilution in CAMHB 24 h
- Type: cell-based, Staphylococcus aureus
- protocol_conditions: Staphylococcus aureus; CF9A-L; Human (CF lungs); MRSA; read-out: MIC
The reader will find reported MIC values listed item by item below.

Please review the following examples before continuing.
| compound_smiles | MIC |
| --- | --- |
| CC[C@H]1OC(=O)[C@H](C)[C@@H](O[C@H]2C[C@@](C)(OC)[C@@H](O)[C@H](C)O2)[C@H](C)[C@@H](O[C@@H]2O[C@H](C)C[C@H](N(C)C)[C@H]2O)[C@](C)(O)C[C@@H](C)C(=O)[C@H](C)[C@@H](O)[C@]1(C)O | > 64 µg/mL |
| O=C(O)c1cn(C2CC2)c2cc(N3CCNCC3)c(F)cc2c1=O | > 64 µg/mL |
| NC[C@H]1O[C@H](O[C@H]2[C@H](O)[C@@H](O[C@H]3O[C@H](CO)[C@@H](O)[C@H](N)[C@H]3O)[C@H](N)C[C@@H]2N)[C@H](O)[C@@H](O)[C@@H]1O | 256 µg/mL |
| CCn1cc(C(=O)O)c(=O)c2cc(F)c(N3CCNCC3)cc21 | > 64 µg/mL |

Kindly review the next molecule as well.
Prompt: Please report the recorded MIC for NC[C@H]1O[C@H](O[C@H]2[C@H](O)[C@@H](O[C@H]3O[C@H](CO)[C@@H](O)[C@H](N)[C@H]3O)[C@H](N)C[C@@H]2N)[C@H](N)C[C@@H]1O .
Completion: 512 to 1020 µg/mL
